- experimentalDetails: NCI Yeast Anticancer Drug Screen. Data for the bub3 strain (AID 167)
- recordedConditions: S. cerevisiae bub3 mutant strain, at 11.0 µM, hits give high values
The panel holds about 79,000 compounds, 15% with a hit somewhere; the sample as a whole holds those more often.
measurementType: growth inhibition (%)
State just the number; it will be interpreted in %.

Request: Return growth inhibition for the following compound: `CCCCCCCCCCC(=O)Cl`
Result: -34

Request: Return growth inhibition for the following compound: `CC(C)/C(Cl)=N\OC(=O)Nc1cccc(Cl)c1`
Result: 10

Request: Return growth inhibition for the following compound: `Cc1cc(S(=O)(=O)/N=C(/NN)NNc2cccc(C(F)(F)F)n2)c(S)cc1Cl`
Result: -3

Request: Return growth inhibition for the following compound: `CCCCCCCCCCCCCCCCCCNC`
Result: 32

Request: Return growth inhibition for the following compound: `S=C(N/N=C(/c1ccccc1)c1ccccn1)N1CCCCCC1`
Result: 22

Request: Return growth inhibition for the following compound: `CCN(CC)[P+](c1ccccc1O)(N(CC)CC)N(CC)CC`
Result: 23

Request: Return growth inhibition for the following compound: `O=C1C=CC(=O)N1c1ccc2c(c1)Cc1cc(NC(=O)C(F)(F)F)ccc1-2`
Result: 7

Request: Return growth inhibition for the following compound: C=C1CC(Cn2cc(Br)c(=O)[nH]c2=O)(c2ccc(-c3ccccc3)cc2)OC1=O (configuration not stated)
Result: 25

Request: Return growth inhibition for the following compound: CC(Br)C(=O)c1ccc2cc(Br)c3ccccc3c2c1 (configuration not stated)
Result: 3

Request: Return growth inhibition for the following compound: OCC(Cn1cncn1)(c1ccc(F)cc1F)n1cncn1 (configuration not stated)
Result: 69

Request: Return growth inhibition for the following compound: `O=c1ssc2ncccc12`
Result: 36

Request: Return growth inhibition for the following compound: CN1CCc2ccccc2C1Cc1ccccc1NC(=O)c1sc2ccccc2c1Cl (configuration not stated)
Result: -33

# credit: PubChem BioAssay (NCI)
